Every entry's value here was drawn from ChEMBL document CHEMBL1129671.

# Species on record: Rattus norvegicus
# Method: Compound was tested for inhibition of [3H]norepinephrine against rat whole brain using in vitro biogenic amine uptake assay using rat brain synaptosomes.
# Format: functional
Test readout: IC50 (µM)
Unit µM implied. Number only.

Ask: Quick one: IC50 for C=Cc1cccn1N(C)c1ccncc1 ?
Reply: 14

----------
# Tested on: Mus musculus
# Method: Antagonistic activity against scopolamine-induced behavioral deficits in mice by subcutaneous administration at a concentration of 1.25 mg/kg
# Format: functional
Response key: fulfilled means Response >= 40%; not fulfilled means Response < 40%.

Ask: For this compound, is measured Response 40% or higher? CN(c1ccncc1)n1ccc(C=O)c1
Reply: not fulfilled

Ask: For this compound, is measured Response 40% or higher? CN(c1ccncc1)n1cccc1C=O
Reply: fulfilled

Ask: For this compound, is measured Response 40% or higher? C=Cc1cccn1N(C)c1ccncc1
Reply: not fulfilled

Ask: For this compound, is measured Response 40% or higher? CC(O)c1ccn(N(C)c2ccncc2)c1 (stereo unspecified)
Reply: not fulfilled

Ask: For this compound, is measured Response 40% or higher? CCN(c1ccncc1)n1cccc1Cl
Reply: not fulfilled

----------
# Species on record: Rattus norvegicus
# Method: Compound was tested for inhibition of [3H]5-HT against rat whole brain using in vitro biogenic amine uptake assay using rat brain synaptosomes.
# Type: functional
Test readout: IC50

Ask: Quick one: IC50 for C=Cc1cccn1N(C)c1ccncc1 ?
Reply: > 20 µM

----------
# System: Mus musculus
# Method: Antagonistic activity against scopolamine-induced behavioral deficits in mice by subcutaneous administration at a concentration of 2.5 mg/kg
# Type: functional
Test readout: Response
Kindly report the value followed by its unit.

Ask: Quick one: Response for CN(c1ccncc1)n1cccc1/C=C/c1ccccc1 ?
Reply: 20%

Ask: Quick one: Response for CCCN(c1ccncc1)n1cccc1 ?
Reply: 27%

Ask: Quick one: Response for CCCN(c1ccncc1)n1cccc1Cl ?
Reply: 27%

Ask: Quick one: Response for CN(c1ccncc1)n1cccc1C=O ?
Reply: 50%

Ask: Quick one: Response for C=Cc1cccn1N(C)c1ccncc1 ?
Reply: 27%

Ask: Quick one: Response for CCN(c1ccncc1)n1cccc1Cl ?
Reply: 27%

Ask: Quick one: Response for c1ccn(Nc2ccncc2)c1 ?
Reply: 47%

----------
# Test system: Mus musculus
# Method: Antagonistic activity against scopolamine-induced behavioral deficits in mice by subcutaneous administration at a concentration of 0.16 mg/kg
# Format: functional
Kindly state Response for each of the entries shown.
Unit % implied. Number only.

Ask: Quick one: Response for CCCN(c1ccncc1)n1cccc1 ?
Reply: 33

Ask: Quick one: Response for C=Cc1cccn1N(C)c1ccncc1 ?
Reply: 27

Ask: Quick one: Response for c1ccc(CN(c2ccncc2)n2cccc2)cc1 ?
Reply: 20

Ask: Quick one: Response for C#CCN(c1ccncc1)n1cccc1 ?
Reply: 47

Ask: Quick one: Response for O=Cc1cccn1Nc1ccncc1 ?
Reply: 20

Ask: Quick one: Response for CC(O)c1ccn(N(C)c2ccncc2)c1 (stereo not drawn) ?
Reply: 20

Ask: Quick one: Response for CN(c1ccncc1)n1cccc1C=O ?
Reply: 50

Ask: Quick one: Response for C=CCN(c1ccncc1)n1cccc1 ?
Reply: 20

----------
# System: Muscarinic acetylcholine receptor
# Method: Inhibition of radioligand [3H]QNB binding (competitive inhibition) to muscarinic acetylcholine receptor in the rat forebrain in the absence of zinc
The threshold is 10 µM. Values of IC50 beneath it are tagged 1; values meeting or exceeding it are tagged 0.

Ask: State whether 10 µM exceeds IC50 recorded for CCN(c1ccncc1)n1cccc1 .
Reply: 1

Ask: State whether 10 µM exceeds IC50 recorded for C#CCN(c1ccncc1)n1cccc1 .
Reply: 1

Ask: State whether 10 µM exceeds IC50 recorded for CN(c1ccncc1)n1cccc1C=O .
Reply: 0

Ask: State whether 10 µM exceeds IC50 recorded for C=CCN(c1ccncc1)n1cccc1 .
Reply: 1

Ask: State whether 10 µM exceeds IC50 recorded for c1ccc(CN(c2ccncc2)n2cccc2)cc1 .
Reply: 1

Ask: State whether 10 µM exceeds IC50 recorded for CCCN(c1ccncc1)n1cccc1 .
Reply: 1

Ask: State whether 10 µM exceeds IC50 recorded for CN(c1ccncc1)n1cccc1CO .
Reply: 0

Ask: State whether 10 µM exceeds IC50 recorded for CN(c1ccncc1)n1cccc1 .
Reply: 0

Ask: State whether 10 µM exceeds IC50 recorded for CN(c1ccncc1)n1ccc(C=O)c1 .
Reply: 0

Ask: State whether 10 µM exceeds IC50 recorded for CCCN(c1ccncc1)n1cccc1C=O .
Reply: 0

Ask: State whether 10 µM exceeds IC50 recorded for O=Cc1cccn1Nc1ccncc1 .
Reply: 0

Ask: State whether 10 µM exceeds IC50 recorded for CN(c1ccncc1)n1cccc1CCc1ccccc1 .
Reply: 1

Ask: State whether 10 µM exceeds IC50 recorded for Clc1cccn1Nc1ccncc1 .
Reply: 0

Ask: State whether 10 µM exceeds IC50 recorded for CN(c1ccncc1)n1cccc1C#N .
Reply: 0

Ask: State whether 10 µM exceeds IC50 recorded for CCc1cccn1N(C)c1ccncc1 .
Reply: 1

Ask: State whether 10 µM exceeds IC50 recorded for CC(O)c1cccn1N(C)c1ccncc1 (stereo not given) .
Reply: 0

Ask: State whether 10 µM exceeds IC50 recorded for C=Cc1cccn1N(C)c1ccncc1 .
Reply: 1

Ask: State whether 10 µM exceeds IC50 recorded for CN(c1ccncc1)n1cccc1Cl .
Reply: 1

Ask: State whether 10 µM exceeds IC50 recorded for CCCCN(c1ccncc1)n1cccc1 .
Reply: 1

Ask: State whether 10 µM exceeds IC50 recorded for c1ccn(Nc2ccncc2)c1 .
Reply: 0

Ask: State whether 10 µM exceeds IC50 recorded for CCCN(c1ccncc1)n1cccc1Cl .
Reply: 1

Ask: State whether 10 µM exceeds IC50 recorded for CN(c1ccncc1)n1cccc1/C=C/c1ccccc1 .
Reply: 1

Ask: State whether 10 µM exceeds IC50 recorded for CCN(c1ccncc1)n1cccc1Cl .
Reply: 1

Ask: State whether 10 µM exceeds IC50 recorded for CCCN(c1ccncc1)n1ccc(C=O)c1 .
Reply: 0

Ask: State whether 10 µM exceeds IC50 recorded for CC(O)c1ccn(N(C)c2ccncc2)c1 (stereo not given) .
Reply: 0
